# TARGET_OR_SYSTEM: T1, XPF-HLD (human, UniProt Q92889 12-672)
# T1 sequence: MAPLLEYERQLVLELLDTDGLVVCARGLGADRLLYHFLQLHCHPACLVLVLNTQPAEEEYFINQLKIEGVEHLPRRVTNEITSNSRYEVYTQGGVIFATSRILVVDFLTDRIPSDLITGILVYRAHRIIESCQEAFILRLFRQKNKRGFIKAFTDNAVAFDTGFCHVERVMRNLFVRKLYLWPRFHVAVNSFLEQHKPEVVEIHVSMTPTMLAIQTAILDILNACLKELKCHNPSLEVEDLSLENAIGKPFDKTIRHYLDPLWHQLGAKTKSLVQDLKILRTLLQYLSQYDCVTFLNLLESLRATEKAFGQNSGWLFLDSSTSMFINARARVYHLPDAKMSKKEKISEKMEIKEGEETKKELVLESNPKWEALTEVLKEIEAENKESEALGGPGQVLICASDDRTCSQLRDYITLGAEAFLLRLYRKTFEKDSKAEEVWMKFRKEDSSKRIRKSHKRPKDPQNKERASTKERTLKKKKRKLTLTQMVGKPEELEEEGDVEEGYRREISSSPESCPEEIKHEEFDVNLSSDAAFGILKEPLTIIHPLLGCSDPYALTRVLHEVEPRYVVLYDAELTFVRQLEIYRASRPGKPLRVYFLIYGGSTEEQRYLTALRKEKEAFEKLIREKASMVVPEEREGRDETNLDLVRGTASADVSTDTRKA
# TEST_PROTOCOL: fluorescence polarization
ASSAY_METRIC: Kd (nM)
Answer in nM, number only, no unit symbol.

Endpoint output: Kd of GCGCTCGGCGTTTTT (ssDNA) [15-mer single strand (FP)] . Value?
263

Now the binder CAGCGCTCGGTTCCGAGCGCTG (structured_DNA) [2T stem-loop duplex (FP)]
217
